- Tested on: BT-549 breast
- Assay remarks: NCI-60 one-dose screen, 48 h (100 = growth as untreated, 0 = no growth, -100 = all killed)
- Run conditions: 10 µM unless noted
Compounds without any hit were thinned out: in the full panel of roughly 83,000, 20% have a hit. Calls of active or inactive are those of the source. How the source made its calls: active means growth percent below 10; inactive means the rest.
Parameter: growth

>  <Compound>
CCOC(=O)c1c[nH]c2cc(OCC3CC3)c(OCC3CC3)cc2c1=O

>  <Tested system>
BT-549 breast

>  <growth>
113% (inactive)

$$$$
>  <Compound>
CCCc1cc2cc(-n3nc(C)c4c3CC(C)(C)CC4=O)cc(NC3CCSCC3)c2c(=O)[nH]1

>  <Tested system>
BT-549 breast

>  <growth>
61.5% (inactive)

$$$$
>  <Compound>
NC(=O)c1c(NC(=O)COC(=O)Cc2ccccc2F)sc2c1CCC2

>  <Tested system>
BT-549 breast

>  <growth>
106% (inactive)

$$$$
>  <Compound>
CCN(CC)CC(C)Nc1ccc(C)c2sc3ccccc3c(=O)c12 (stereo unspecified)

>  <Tested system>
BT-549 breast

>  <growth>
82.3% (inactive)

$$$$
>  <Compound>
CCOC(=O)c1nn(C2CCCCO2)c2ccc(NC(=O)CN3CCOCC3)cc12 (stereo unspecified)

>  <Tested system>
BT-549 breast

>  <growth>
101% (inactive)

$$$$
>  <Compound>
COC(=O)[C@]12CCC(C)(C)C[C@H]1C1=CC[C@@H]3[C@@]4(C)C/C(=C/c5cccnc5)C(=O)C(C)(C)[C@@H]4CC[C@@]3(C)[C@]1(C)CC2

>  <Tested system>
BT-549 breast

>  <growth>
-45.7% [100 µM] (active)

$$$$
>  <Compound>
O=C1/C(=C\c2cccn2Cc2ccccc2)c2ccccc2N1c1c(Cl)cccc1Cl

>  <Tested system>
BT-549 breast

>  <growth>
81% (inactive)

$$$$
>  <Compound>
COC(=O)c1cc2c(=O)[nH]cc3c2c(n1)CCC3

>  <Tested system>
BT-549 breast

>  <growth>
108% (inactive)

$$$$
>  <Compound>
Cn1cc(-c2nnc(-c3cn(C)c4ncc(Br)cc34)o2)c2ccccc21

>  <Tested system>
BT-549 breast

>  <growth>
95.2% (inactive)

$$$$
>  <Compound>
Cc1ncc(C(=O)Nc2ccc(CN3CCN(C)CC3)c(C(F)(F)F)c2)cc1C#Cc1c(N)ncc2ccc(C#N)cc12

>  <Tested system>
BT-549 breast

>  <growth>
51.4% (inactive)

$$$$

Query: Would you mind telling me what growth value was observed for O=C(Nc1ccc(CN2CCOCC2)c(C(F)(F)F)c1)c1nc2ccc3[nH]ncc3c2c2c1CCCC2 ?
Response: 136% (inactive)

Query: Could you do the same for CC(C)C1=NOC(=O)C1=Cc1cn(-c2ccccc2)nc1-c1cccc([N+](=O)[O-])c1 , please?
Response: 109% (inactive)

Query: Could you do the same for C=C(C)[C@@H]1CC[C@]2(COC(=O)c3ccccc3C(=O)O)CC[C@]3(C)[C@H](CC[C@@H]4[C@@]5(C)CC[C@H](OC(=O)c6ccccc6C(=O)O)C(C)(C)[C@@H]5CC[C@]43C)[C@@H]12 , please?
Response: 28.1% [100 µM] (inactive)

Query: Could you do the same for CCN(CC)c1ccc(/C=C/c2ccc3cc(C)ccc3[n+]2CC)cc1 , please?
Response: 1.38% (active)
